- TARGET OR SYSTEM: T1, human serum albumin (human, UniProt P02768 25-609)
- T1 construct: In the mutant screen wild type HSA came from medium of transfected HeLa cells; also called HSA; wild type HSA
- T1 sequence (P02768 25-609 limits assumed): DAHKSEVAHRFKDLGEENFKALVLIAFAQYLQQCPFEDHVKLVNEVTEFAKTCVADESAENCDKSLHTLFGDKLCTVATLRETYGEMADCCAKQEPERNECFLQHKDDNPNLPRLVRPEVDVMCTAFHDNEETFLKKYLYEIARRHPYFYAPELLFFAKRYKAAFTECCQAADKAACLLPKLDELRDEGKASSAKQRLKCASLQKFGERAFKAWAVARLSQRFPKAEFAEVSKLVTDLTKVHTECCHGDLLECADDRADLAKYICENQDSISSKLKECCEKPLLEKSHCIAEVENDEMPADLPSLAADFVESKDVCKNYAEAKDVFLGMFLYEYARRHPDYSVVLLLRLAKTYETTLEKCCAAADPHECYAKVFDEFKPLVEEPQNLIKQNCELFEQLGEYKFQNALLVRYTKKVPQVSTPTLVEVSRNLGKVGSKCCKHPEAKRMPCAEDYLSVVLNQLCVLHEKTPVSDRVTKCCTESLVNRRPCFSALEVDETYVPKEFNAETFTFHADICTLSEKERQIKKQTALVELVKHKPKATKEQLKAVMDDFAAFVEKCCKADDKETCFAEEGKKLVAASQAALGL
- ASSAY DETAILS: SPR, HSA immobilised;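 also: nanobody analytes injected as dilution series across three log units over CM5 chip with amine-coupled antigen, kinetics fitted by 1:1 Langmuir model, optionally with mass transfer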
PARAMETER MEASURED: koff (s⁻¹)
State the answer as a number, implicitly in s⁻¹.

Summary for this binder, H20 (VHH) VHH: EVQLVESGGGLVQAGGSLRLSCTASGPKDTPYTMGWFRQVPGKEREFVASVLWSGINTDYADSVKGRFAISRNNAKNTMYLQMNSLKPEDTAVYYCAAGYGLGFYRTVSQYDYWGHGTQVTVSS : koff is 3.8e-05

Summary for this binder, H25 (VHH) VHH: DVQLVESGGGLVQAGGSLRLSCAASGRTISDYGMAWFRQAPGKEREFVGVITSNSVTTYYADSVKGRFTISRDNTKNTVYLQMISLKPEDTAIYYCAARIPVGFYYNARNYDFWGQGTQVTVSS : koff is 0.000802

Summary for this binder, H21 (VHH) VHH: QVQLVESGGGLVQAGGSLRLSCAASGYTSGNDAMGWFRQAPGKEREFVGAIRWSGVSTYYADSVKGRFTISRDGAKNTLYLQMNSLKPEDTAVYYCAAKFTGSAWYGVQKLESTYWDYWGQGTQVTVSS : koff is 0.000182
